target: Fuc(a1-2)[Gal(a1-3)]Gal(b1-3)GlcNAc(b1-2)Man(a1-3)[Fuc(a1-2)[Gal(a1-3)]Gal(b1-3)GlcNAc(b1-2)Man(a1-6)]Man(b1-4)GlcNAc(b1-4)[Fuc(a1-6)]GlcNAc; experiment: glycan array binding signal (z-score within array); higher = stronger binding; conditions: glycan notation: IUPAC condensed, linker removed
Shown is part of a subset that was picked to be rich in the strongest signals.
Label Criterion not met if glycan array binding signal (z-score) falls below -0.07; label Criterion met in every other case.

{"BINDER": "EUL D1A (Oryza sativa) (protein) MFGFGHHHNQAPAAPSDPNQIFKIFCRANENYCLTVRDSAVVLAPVNPKDEHQHWFKDMRFSTKVKDGEGMPAFALVNKATGLAVKHSLGQSHPVKLVPFNPEYEDASVLWTESKDVGKGFRCIRMVNNTRLNLDAFHGDKDHGGVRDGTTVVLWEWCKGDNQSWKILPWGPEAHSSSPGAATACTIGGVPVHTVRVFSAAGEDYCLTVRNGTACLAPKNPRDDYQHWIKDMRHSNKIRDEEGYPAFALVNKVTGEAIKHSTGQGHPVKLVPYNPEYQDESVLWTESKDVGKGFRCIRMVNNIYLNFDAFHGDKDHGGIHDGTEIVLWKWCEGDNQRWKILPWILEQKLISEEDLNSAVDHHHHHH", "ASSIGNED LABEL": "Criterion not met"}
{"BINDER": "RsaA-N-term (Caulobacter crescentus), P35828 (protein) MAYTTAQLVTAYTNANLGKAPDAATTLTLDAYATQTQTGGLSDAAALTNTLKLVNSTTAVAIQTYQFFTGVAPSAAGLDFLVDSTTNTNDLNDAYYSKFAQENRFINFSINLATGAGAGATAFAAAYTGVSYAQTVATAYDKIIGNAVATAAGVDVAAAVAFLSRQANIDYLTAFVRANTPFTAAADIDLAVKAALIGTILNAATVSGIGGYATATAAMINDLSDGALSTDNAAGVNLFTAYPSSGVSGSTLSLTTGTDTLTGTANNDTFVAGEVAGDGSGWSHPQFEKGG", "ASSIGNED LABEL": "Criterion met"}
{"BINDER": "SGC, Q9M345 (protein) QNLNFTYNGFHPPLTDISLQGLATVTPNGLLKLTNTSVQKTGHAFCTERIRFKDSQNGNVSSFSTTFVFAIHSQIPTLSGHGIAFVVAPTLGLPFALPSQYIGLFNISNNGNDTNHIFAVEFDTIQSSEFGDPNDNHVGIDLNGLRSANYSTAGYRDDHDKFQNLSLISRKRIQVWIDYDNRSHRIDVTVAPFDSDKPRKPLVSYVRDLSSILLEDMYVGFSSATGSVLSEHFLVGWSFRLNGEAPMLSLSKLPKLPRFEPRRIS", "ASSIGNED LABEL": "Criterion not met"}
{"BINDER": "PFL (Pseudomonas fluorescens) (protein) MSKYAVANQWGGSSAPWHPGGTWVLGARDNQNVVAIEIKSGDGGKSFTGTMTYAGEGPIGFKAQRTGQNQYNVENQWGGNDAPWHPGGKWVIGGRDNQNVIALSVTSSDGGKNLSGTNTYANEGPIGFRGQIE", "ASSIGNED LABEL": "Criterion met"}
